The reported measurements were obtained from paper PMC5789597.

Tested on: normal CRL2120 human skin fibroblasts
Experiment: Neutral red (NR) uptake cytotoxicity assay, normal fibroblasts
Assay type: cell-based
Details: Skin fibroblast, 72 h incubation
From the text: DMSO at 0.1% was used as solvent control.
Recorded pIC50 by entry
In plain terms, pIC50 is the concentration in mol/L turned into minus its base-10 logarithm.

COc1cc2c(c(O)c1CC=C(C)C)C(=O)[C@H](O)[C@@H](c1ccc(O)cc1)O2	4.34

query: Fill in the blank: the reported pIC50 of CC1(C)C=Cc2c(cc(O)c3c(=O)c4cc5c(c(O)c4oc23)OC(C)(C)C=C5)O1 is ____.
result: 4.10
